ASSAY_INFO: Drug level in healthy human urine at 400 mg single dose
Assay type: ADME, organism-based
EXPERIMENTAL_SETUP: read-out: Drug uptake
PARAMETER_MEASURED: dose excreted (%)
Give the value in % but do not write % after it.

Report measured dose excreted; entry is CO[C@H]1/C=C/O[C@@]2(C)Oc3c(C)c(O)c4c(O)c(c5c(nc6cc(C)ccn65)c4c3C2=O)NC(=O)/C(C)=C\C=C\[C@H](C)[C@H](O)[C@@H](C)[C@@H](O)[C@@H](C)[C@H](OC(C)=O)[C@@H]1C [RIFAXIMIN]
0.32

----------
ASSAY_INFO: AUC (0 to last) in Shigella flexneri challenged human at […], po administered every 8 hrs for three days measured after third dose
Format: ADME, organism-based
Set-up: route oral, time 0 - last
EXPERIMENTAL_SETUP: plasma
PARAMETER_MEASURED: AUC(0-t) at 8 h (ng·h/mL)
Entry rule: numbers only, all in ng·h/mL.

For the molecule CO[C@H]1/C=C/O[C@@]2(C)Oc3c(C)c(O)c4c(O)c(c5c(nc6cc(C)ccn65)c4c3C2=O)NC(=O)/C(C)=C\C=C\[C@H](C)[C@H](O)[C@@H](C)[C@@H](O)[C@@H](C)[C@H](OC(C)=O)[C@@H]1C , report AUC(0-t) at 8 h.
6.95
